- TARGET DESC: Src (Homo sapiens)
- Construct: purchased Life Technologies
- Sequence (P12931 whole entry): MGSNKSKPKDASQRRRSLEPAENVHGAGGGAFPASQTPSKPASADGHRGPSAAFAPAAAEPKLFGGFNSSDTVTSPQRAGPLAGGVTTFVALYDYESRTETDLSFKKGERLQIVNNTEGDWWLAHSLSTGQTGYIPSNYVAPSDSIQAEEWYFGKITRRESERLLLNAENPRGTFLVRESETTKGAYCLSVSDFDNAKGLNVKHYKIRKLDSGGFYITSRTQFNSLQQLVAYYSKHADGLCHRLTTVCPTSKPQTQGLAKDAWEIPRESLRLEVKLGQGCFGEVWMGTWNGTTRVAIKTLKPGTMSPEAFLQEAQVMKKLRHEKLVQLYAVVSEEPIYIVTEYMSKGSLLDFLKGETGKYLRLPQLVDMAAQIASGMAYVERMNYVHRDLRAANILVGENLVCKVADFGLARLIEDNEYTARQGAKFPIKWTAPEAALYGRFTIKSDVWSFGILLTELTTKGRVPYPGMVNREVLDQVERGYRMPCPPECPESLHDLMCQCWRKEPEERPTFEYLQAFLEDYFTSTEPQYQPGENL
- PROTOCOL SUMMARY: Src kinase assay, IMAP fluorescence polarization
- Assay type: biochemical
- TEST PARAMETERS: 50 or 100 μM ATP, average
Measured Ki, listed per entry.
MEASUREMENT LABEL: Ki

- COMPOUND: "Cc1cccc(F)c1-c1cc(N2CC[C@H](O)C2)c2cc(N)ncc2c1 [Example 105]"
  RESULT: "> 10000 nM"
- COMPOUND: "Cc1cccc(F)c1-c1cc(N[C@@H]2CCCNC2)c2cc(N)ncc2c1 [Example 25]"
  RESULT: "> 1000 nM"
- COMPOUND: "Cc1cccc(F)c1-c1cc(NC[C@@H]2CCN(C)C2)c2cc(N)ncc2c1 [Example 74]"
  RESULT: "> 1000 nM"
